# system: T1, recombinant antigen of the extracellular region of CD47 (Sino Biological, Cat: 12283-H08H) (human, UniProt Q08722 19-139)
# T1 construct: extracellular domain; also called recombinant CD47 extracellular region; CD47 recombinant protein
# T1 sequence (Q08722 19-139 limits assumed): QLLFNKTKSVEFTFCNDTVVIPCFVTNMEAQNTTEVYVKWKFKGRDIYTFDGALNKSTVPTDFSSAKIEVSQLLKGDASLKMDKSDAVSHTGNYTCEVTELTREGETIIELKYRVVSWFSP
# assayName: Fortebio BLI, recombinant CD47
testReadout: pKd
Reminder that pKd is minus the log10 of a molar concentration.

Prompt: Query: pKd; subject: hz140-Hm13/hz182-Lm9 (antibody, V domains shown) VH: EVQLVQSGAEVKKPGASVKVSCKASGYKFTNYVMSWVRQAPGQRLEWMGYINPYNDAIKYNEKFTGRVTITRDTSASTAYMELSSLRSEDTAVYYCAREGDFYANYGRLGFAYWGQGTLVTVSS VL: DIQMTQSPSSLSASVGDRVTITCRASQDISNYLNWYQQKPGKAPKLLLYYTSRLHSGVPSRFSGSGSGTDYTLTISSLQPEDFATYFCQQGDTFPYTFGGGTKVEIKR
Completion: 7.41
